# Test system: HOP-62
# Assay: NCI tumour cell line growth inhibition, 48 h
Calls of active or inactive are those of the source. Cut-off read from the data, not from the text of the source: active = GI50 up to about 1.1 µM and inactive = higher.
Quantity Name: GI50

Sample records with GI50:
### Prompt Which value of GI50 has been reported for CCOC(=O)/C=C/CC(C)(C)CCOC(C)=O in the records?
### Response > 10 µM (inactive)

### Prompt Fill in the blank: the reported GI50 of O=S(=O)(c1ccc(-c2nnc(-c3ccc(F)cc3)o2)cc1)c1ccc(-c2nnc(-c3ccc(F)cc3)o2)cc1 is ____.
### Response 27 µM (inactive)

### Prompt Query (compound): C1=N\CCNCCNCC/N=C\c2ccc(cc2)OCc2cccc(n2)COc2ccc/1cc2 ; field requested: GI50
### Response > 100 µM (inactive)

### Prompt Which measured GI50 value corresponds to O=C(/C=C\c1ccccc1)Oc1ccc(/C=C2\CCCCC2=O)cc1 ?
### Response 72.1 µM (inactive)

### Prompt What does the record list as GI50 for CCOC(=O)C(=CN1CCNC1=S)C(=O)OCC ?
### Response > 100 µM (inactive)

### Prompt Consider the compound shown here: CCOC(=O)C#Cc1ccc(C#CC(=O)OCC)cc1 What is its recorded GI50?
### Response 3.81 µM (inactive)

### Prompt Request the reported GI50 associated with CN(C)Cc1cc(C(F)(F)F)ccc1C(O)(c1ccccc1)c1ccccc1
### Response 16.3 µM (inactive)

### Prompt Return reported GI50; argument: O=C(Cc1ccc(F)cc1)NC1=C(Cl)C(=O)c2ccccc2C1=O
### Response 10 µM (inactive)

Others:
### Prompt Can you look up the measured GI50 of COP(=O)(OC)C(N)Cc1c[nH]c2ccccc12 (centres undefined) for me?
### Response > 100 µM (inactive)

### Prompt Entry CCc1n[nH]c(=O)n1/N=C/c1c(O)ccc2ccccc12 has what GI50?
### Response > 100 µM (inactive)

### Prompt I would be grateful if you could share the reported GI50 for CCNc1c(C(=O)N(CC)CC)c(=O)[nH]c2ncccc12 .
### Response > 100 µM (inactive)

### Prompt If you can, please state the reported GI50 value of N#Cc1c2ccc([N+](=O)[O-])cc2c(=O)n2c1sc1ccc(C(F)(F)F)cc12 .
### Response > 100 µM (inactive)

### Prompt Can you look up the measured GI50 of OC1CCOc2ccccc21 (centres undefined) for me?
### Response > 100 µM (inactive)

### Prompt Record request: GI50 value, item CC(=N\N=C\c1ccccn1)/C(C)=N/N=C/c1ccccn1
### Response > 100 µM (inactive)

### Prompt # lookup: GI50 of Cn1ncc2c(Cl)ncnc21
### Response > 100 µM (inactive)

### Prompt Please look up its GI50: COC(=O)C1=C(O)C(C(=O)OC)[C@]2(O)[C@H](C(=O)OC)[C@H]1C[C@@H](c1ccc(OC)c(OC)c1)[C@H]2C(=O)OC (some centres undefined)
### Response 16.7 µM (inactive)

### Prompt Quick one: GI50 for O=C1[C@@H]2C(c3ccccc3Br)=NO[C@@H]2C(=O)N1c1ccc(Cc2ccc(N3C(=O)[C@H]4C(c5ccccc5Br)=NO[C@H]4C3=O)cc2)cc1 ?
### Response > 100 µM (inactive)

### Prompt Using the record for O=[N+]([O-])c1cc2oc(CSc3ccccc3)nc2cc1Cl , report its GI50.
### Response 41.7 µM (inactive)

### Prompt # lookup: GI50 of Cc1nc2ccc(Br)cc2c(=O)n1-c1ccc(NC2OCC(O)C(O)C2O)cc1 (centres undefined)
### Response > 100 µM (inactive)

### Prompt GI50 for CCN(CC)CC1CCCCN1CC(=O)N1c2ccccc2NC(=O)c2ccccc21 (centres undefined) ?
### Response > 100 µM (inactive)

### Prompt Any idea what GI50 was measured for COc1ccc(-c2[nH]c(=O)n(C3OC(CO)C(O)C(O)C3O)c(=O)c2C#N)cc1 (centres undefined) ?
### Response > 100 µM (inactive)

### Prompt Reported GI50, compound Cn1c2ccccc2c2cc(N3CCCC3)c3c(c21)C(=O)N(c1ccccc1)C3=O : ____
### Response 60.8 µM (inactive)

### Prompt What value of GI50 has been reported for the following compound? CC1CC(N)=Nc2ccccc2N1Cc1ccccc1 (centres undefined)
### Response 13 µM (inactive)

### Prompt Bench note: what GI50 did CCN(CC)CC(O)CNc1ccc(NCC2CO2)c2c1C(=O)c1ccccc1C2=O (centres undefined) show?
### Response 1.15 µM (inactive)
